The measured values listed here are drawn from the nanobody polyreactivity screen of Harvey et al. (2022).

test: yeast display, Sf9 membrane polyspecificity reagent, FACS + sequencing; frameworks hold sequencing errors
measured-attribute: polyreactivity (PSR sort gate)

residue-codes	measured-attribute	value-reported
QVQLEESGGGLVQAGGSLRLSCAASGSIFYVYAIGSYRQAPRKERELVAAISQSGGNTYYADSVKGRFTISRDNAKNTVYLQMNSLKPEDTAVYYCNAVYYYYAGNYWGQGTQVTVSS	polyreactivity (PSR sort gate)	high polyreactivity
QVQLVESVGGLVQAGGSLRLSCAASGRIFKWYAMGWYRQAPGKERELVAAITSGGGSTYYADSVKGRFTISRDNAKNTVYLQINSLKPEDTAVYYCNAKAPAEIRSYLRTSRYDYWGQGTQVTVSS	polyreactivity (PSR sort gate)	high polyreactivity
QDQLVESGGGLVQAGGSLRLSCAASGSNFVPYAMGWYRQSPGKERELVAAISGSGTRTYYAYSVKGRFTISRDNSKNTVYLQMNSLKPEDTAVYYCDADWRRSVGYTMGYWGQGTQVTVSS	polyreactivity (PSR sort gate)	high polyreactivity

====

assay: yeast display, Sf9 membrane polyspecificity reagent, FACS + sequencing; frameworks hold sequencing errors
measured-attribute: polyreactivity (PSR sort gate)

Worked examples follow.
residue-codes	value-reported
QVQLVESGGCLVQAGGSLRLSCAASGSTYPVNAMVWSRKEPGKERELDATISWNDDSTDYADSVKGRFTISRDNAKNNVYLQLKSLKPEDTAVYYCAADWHAWGLYTFNSWGQGTLVTVSS	low polyreactivity
QVQLVESGGVFDQARGSLRLSCAASGSIFAIYAMGWYRQAPGKERELVAAISRSGGRTYYADSVKGRFTISRDNAKNTVYLQMNSLKPEDTAVYYCAAQGVSSGFRYRGGYWGQGTQVTVSS	high polyreactivity
QVQLVESGGGLVQAGGSLRLSCAASGRIFGTNAMGWYRQAPGKERELVADITSGGSTNYADSVKGRFTISRDNAKNTVYLQMNSLKPEDTSVYYCAATWYGYYSRYDFYYWGQGTQVTVSS	low polyreactivity
QVQLVESGGGLVQAGGSLRLSCAASGRTVGGNAMGWYRQAPGKERELVAAINRSGGTTYYADSVKGRFTISRDNAKNTVYLQMNSLKPEDTAVYYCAARRTVSATRMGYWGQGTQVTVSS	high polyreactivity
QVQLVESGGGLVQAGGSLRLSCAASGRIFDYNAMGWYRQAPGKERELVAAINSGGSTYADSVKGRFTISRDNAKNTVYLQMNSLKPEDTAVYYCAKSLGQTDWEYDSWGQGTQVTVSS	low polyreactivity

Return reported polyreactivity (PSR sort gate); argument: QVQLVESGGGLVQAGGSRRLSCAASGSILSKYTMGWYRQATGKERELVAVISSSGASTYYADSVKGRFTISRDNAKNTVYLQMNSLKPEDTAVYYCATYPWYSKYRYDHWGQGTQVTVSS
high polyreactivity

# repeat for QVQLVESGGGLVQAGGSLRLSCAASGRIYVPNAMGWYRQAPGKERELVAAITSDGRTNDADSVKGRFTISRDNAKNTVYVQMNSLKPEDTAVYYSNAPVVTFGGYQDDVEYGYWGQGTQVTVSS
low polyreactivity

# repeat for QFQLLESGGGLVQAGGSLRLSCAASGSTFSLTTMGWYRPAPGKERELVAAINSGGSTYYADSVKGRFTISRDNAKNTVYLKMNSLKPEDTAVYYCAARTKYFGRFDYWGQGTQVTVSS
low polyreactivity

# repeat for QVQLVESGGGLVQAGGSLRLSCAASGFTLQSNAMGWFRQATGKERELVAAISFRGGSTYYADSVKGRFTISRDNAKNTVYLQMNSLKPEDTAVYYCAADFYFHSAYNYGYWGQGTQVTVSS
low polyreactivity

# repeat for QVQLVESGGGLVQAGGSLRLSCAASGFIFPPYDMGWYRQAPGKERELVAGISDVGTTYYADSVKGRYTISRDNAKNPVYLQMNSLKPEDSAVYYCAAESQGDDQFWTGGYDSWGQGTQVTVSS
low polyreactivity

# repeat for QVQLVESGGGLVQAGGSLRLSCAASGRTIGVYAMGWYRQAPGKERELVAGITTSGDSTYYADSVKGRFTISRDNAKNTVYLQMNSLKPEDTAVYYCNADVLFFYTPTSEYDYWGQGTQVTVSS
low polyreactivity

# repeat for QVQLQESGGGLVQASGSLRLSCAASGNIFPDYFMGWYRLATGKEREFVANITGGSTTNYADSVKGRFTISRDNANNTVYLQIYSLKPEDTAVYYCAVYFGTVQHAYWGQGTQVTVSS
high polyreactivity

# repeat for QVQLVESGGGLVQAGGSLRLSCAASGITFNSYAKGWYRQAPGKERELVASISWIGGSTYYADSVKLRFTISRDNAKNTVYLQMNSLKPEDTAVYYCAVDKGTDYYYEVDYWGQGTQVTVSS
low polyreactivity

# repeat for QVQLVESGGGLVQAGGSLRLSCAASGSILYYYAMGWYRQAPGKERELVAAITRSGGSTYYADSVKGRITISRDNAKNTVYLQMNSLKPEDTAVYYCAKDAHAYRDLDYWGQGTQVTVSS
low polyreactivity

# repeat for QVQLVESGGCLVQAGGSLRLSCAASGFIFRQYAMGWYRQAPGKERELVAAISTGGGRTYYADSVKGRFTISRDNAKNTVYLQMNSLKPEDTAVYYCAAGYPYSYRDYYYWGQGTQVTVSS
high polyreactivity

# repeat for QVQLVESGGGLVQAGGSLRLSCAASGLTFDWYAMGWYRQAPGKERELVAAISWNGVSTDYADSVKGRFTISRDNAKNTVYLQMNSLKPEDTAVYYCAADPPWYLYVGFDYWGQGTQVSVSS
high polyreactivity

# repeat for QVQLVESGGGLVQAGGSLRLSCAASGRTFWRNDMGWYRQAPGKERELVARISWSGGSTYYADSVKGRFTISRDNAKNTVYLQMNSLKPEDTAVYYCAKYYPGRSAFSDGNYWGQGTQVTVSS
low polyreactivity

# repeat for LVQLQESGGGLVQAGGSLRLSCAASGTISPGGYMGWYRQAPGKERELVASINVGGSTNYADSVKGRFTISRDNAKNTVYLQMKSLKPEDNAVYYCAVWGRNRLQLSYWGQGTQVTVSS
low polyreactivity

# repeat for QVQLVESGGGLVQAGGSLRLSCAASGFTFAGYAMGWYRLAPGKVRELVAAISWRGGSTYYADSVKGRFTISRDNAKNTVYLQMNSLKPEDTAVYYCAAASRKRTSREPLDYWGQGTQVTVSS
high polyreactivity

# repeat for QVQLVESGGGLFQAGGSLRLSCAPSGRISNKYAMGWYRQAPGKERELVAAISYSGGTTYYADSVKGRFTISRDNAKNTVYLQMNSLKPEDTAGYYCAREWTKGYGYYWGYYWGQGTQVTASS
low polyreactivity

# repeat for QVQLVESGGGLVQAGGSLRLSCAASGRIFSRYAMGWYRQAPGKERELVATISSGGGTYYADSVKGRFTISRDNAKNTVYLQMNSLKPEDTAVYYCAVQVWYGRYYYWGQGTQVTVSS
high polyreactivity

====

test: yeast display, Sf9 membrane polyspecificity reagent, FACS + sequencing; frameworks hold sequencing errors
measured-attribute: polyreactivity (PSR sort gate)

Worked examples follow.
residue-codes	polyreactivity (PSR sort gate)
QVQLVESGGGLVQAGGILRLSCAASGSTFRIYAKGWYRPAPGKERELVAGIRSSGGSTYYADSVKGRFTISRDKAKNTDYLQLNSLKPEDTAVYYCAKRHPYSWGSYQRYNYWGQGTQVTVSS	low polyreactivity
QVQLVESGGGLVQAGGSLRLSCAASGSIFKYYAMGWYRQAPGKERELVAAISSGGITNYADSVKGRFTISRDNAKNTVYLQMNSLKPEDTAVYYCAARDYVRFGLYDYDYWGQGTQVTVSS	low polyreactivity
QVQLVESVVGLVQAGGILRLSCSASGRTFVHYTMGWYRQAPGKETELVAAISGTGTSTYYADSVKGRFTISRDNAKNTVYLQMNSLKPEDTAVYYCARDPYFGFHMGYPRRDYWGQGTHVTVSS	low polyreactivity
QVQLVESGGGLVQAGGSLRLSCAASGFTFSSNAMGWYRQAPGKERELVAAIRSDGVRTYYADSVKGRFTISRDNAKNTVYLQMNSLKPEDTAVYYCNSVSDVRIGAGDYWGQGTQVTVSS	high polyreactivity
QVQLVESGGGLVQAGGSLRLSCAASGRTFRYYAMGWYRQAPGKERELVAAISSSGDRTYYADSVKGRFTISRDNAKNTVYLQMNSLKPEDTAVYYCAADRGARGDYWGQGTQVTVSS	high polyreactivity
QVQLVESGGGLVQAGGSLRLSCASSGSIFTCYTMGWYRQAPGKEMELVAAISQTGGRTYYADSVKVRFTISRDNAKNTVYLQMNSLKAEDTAVYYCAARSKRLAHDYWGQGTQVTVSS	high polyreactivity

Return reported polyreactivity (PSR sort gate); argument: QVQLVESGGGLVQAGGSLRLSCAASGNIFPGYAMGWYRQAPGKERELVAGISGSGGRTYYADSVKGRFTISRDNAKITVYLQMNSLKPEDSAVYYCAAEFKYYYRFEYDYWGQGTQVTVSS
low polyreactivity

# repeat for QVQLVESGGGLVQAGGSLRLSCAASGFTFRAYAMGWYRQAPGKERELVATITRSGGSTFYADSVKGRFTISRDNAKNTVYLQMNSLKPEDTAVYYCAAVYRFAFRYAWYKYDYWGQGTQVTVSS
high polyreactivity

# repeat for QVQLVESGGGLVQAGGSLRLSCADYGIIFSPYAMGWYRQAPGKERELVAAISYSGGSTYYADSVKGRFTISRDNAKNTVKLQMNSLKPEDTAVYYCAVVYSYYLAVLGYWDYDYWGQGTQVTVSS
low polyreactivity

# repeat for QVQLVETGGGLVQAGGSLRLSCAASGRIFYYKAKGWYRQAPGKERELVASISWDASSTYYADSVKGRFTISRDNAKNTVYLQMNSLKPEDTAVYYCNIKHLYRQYDYWGQGTQVTVSS
low polyreactivity

# repeat for QVHLVESGRGLFQAGGSLRLSCAASGSIFGYNAMGWYRQAPGKERELVAAITWRGGSTYYADSVKGRFTISRDNAKNTVYLQMNSLKPEDTAVYDCAAYVYQEYDYWGQGTQVTVSS
high polyreactivity
